Entries annotated with measured inhibition at 10 min, 20 µM
Biological target: CYP3A4 (Homo sapiens)
Sequence (P08684 2-503 limits assumed): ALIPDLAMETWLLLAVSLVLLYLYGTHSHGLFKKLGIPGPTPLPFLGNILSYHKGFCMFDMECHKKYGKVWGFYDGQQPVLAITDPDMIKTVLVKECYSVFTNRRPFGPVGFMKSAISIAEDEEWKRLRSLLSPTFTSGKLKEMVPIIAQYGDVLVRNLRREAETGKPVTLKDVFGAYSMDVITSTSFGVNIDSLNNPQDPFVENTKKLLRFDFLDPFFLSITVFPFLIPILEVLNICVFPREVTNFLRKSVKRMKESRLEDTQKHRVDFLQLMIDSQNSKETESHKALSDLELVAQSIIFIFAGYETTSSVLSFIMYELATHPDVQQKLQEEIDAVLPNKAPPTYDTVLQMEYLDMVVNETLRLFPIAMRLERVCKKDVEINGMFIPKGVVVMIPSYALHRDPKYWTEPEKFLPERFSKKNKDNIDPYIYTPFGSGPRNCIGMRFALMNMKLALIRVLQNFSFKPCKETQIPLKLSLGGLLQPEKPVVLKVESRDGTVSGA
Test: Cytochrome P450 3A4 inhibition assay (P450-Glo, Luciferin-IPA)
Settings: recombinant human CYP3A4 Supersomes (+ oxidoreductase + b5), pH 7.4, probe Luciferin-IPA
# unit: % | format: bare number

Use the examples below as a reference point.
# line notation, inhibition at 10 min, 20 µM, %
rows = [
    ("O=C(Nc1nonc1-c1ccc([N+](=O)[O-])cc1)c1cccc(C(F)(F)F)c1", 82),
    ("Cc1cccc(C(=O)Nc2nonc2-c2ccc(Cl)cc2)c1", 57),
    ("CCOc1cc(-c2nonc2NC(=O)c2cccc(C)c2)ccc1OC", 66),
    ("O=C(Nc1nonc1-c1ccc([N+](=O)[O-])cc1)c1cccc(F)c1", 43),
]

Return inhibition at 10 min, 20 µM for the following molecule: O=C(Nc1nonc1-c1ccc(F)cc1)c1cccc(F)c1
60

###

Tested on: L-6 cells
Assay: In vitro cytotoxicity with L-6 cells (resazurin)
Format: cell-based, rat
Settings: rat skeletal myofibroblasts; average of four determinations; read-out: Cytotoxicity L-6 Cells IC50
quantity measured: pIC50
Keep in mind that pIC50 stands for -log10 of concentration in molar terms.

# compound, measured value
data = [
    ("COc1cc([C@@H]2c3cc4c(cc3[C@H](O)[C@H]3COC(=O)[C@H]23)OCO4)cc(OC)c1OC [POD, podophyllotoxin, reference compound]", 7.92),
]

Write down measured pIC50 (L-6 cells) for this compound. CCN(CC)CCCC(C)Nc1ccnc2cc(Cl)ccc12 (centres unmarked) [CQ, chloroquine, reference compound]
4.04

###

Experiment: In vitro cytotoxicity with L-6 cells (resazurin)
Format: cell-based, rat
Settings: rat
Labels assigned by IC50 at 72 h range: low value: < 10 µM; medium value: ≥ 10 µM and < 50 µM; high value: ≥ 50 µM

Illustrative cases are given below, each with its answer.
# compound, assigned label
data = [
    ("O=C(Nc1nonc1-c1cccc([N+](=O)[O-])c1)c1ccccc1 [Compound 41]", "low value"),
    ("Nc1cccc(-c2nonc2NC(=O)c2cccc(F)c2)c1 [Compound 62]", "high value"),
    ("Cc1cccc(C(=O)Nc2nonc2-c2ccc([N+](=O)[O-])cc2)c1 [Compound 38]", "low value"),
    ("COc1ccc(C(=O)Nc2nonc2-c2ccc([N+](=O)[O-])cc2)cc1Cl [Compound 53]", "low value"),
    ("CCOc1ccc(-c2nonc2NC(=O)c2cccc(C)c2)cc1OC [Compound 52]", "medium value"),
]

Place this compound in its band: Nc1cccc(-c2nonc2NC(=O)c2ccccc2)c1 [Compound 60]
high value

Place this compound in its band: O=C(Nc1nonc1-c1ccc([N+](=O)[O-])cc1)c1cccc(C(F)(F)F)c1 [Compound 40]
low value

Place this compound in its band: Cc1cccc(C(=O)Nc2nonc2-c2cccc([N+](=O)[O-])c2)c1 [Compound 42]
low value

Place this compound in its band: Nc1ccc(-c2nonc2NC(=O)c2cccc(F)c2)cc1 [Compound 57]
high value

Place this compound in its band: O=C(Nc1nonc1-c1cccc([N+](=O)[O-])c1)c1cccc(F)c1 [Compound 43]
low value

Place this compound in its band: CCOc1cc(-c2nonc2NC(=O)c2cccc(C)c2)ccc1OC [Compound 51]
high value

Place this compound in its band: COc1ccc(C(=O)Nc2nonc2-c2ccc(N)cc2)cc1Cl [Compound 59]
high value

Place this compound in its band: O=C(Nc1nonc1-c1ccc(Cl)cc1)c1cccc(F)c1 [Compound 46]
medium value

Place this compound in its band: Nc1ccc(-c2nonc2NC(=O)c2cccc(C(F)(F)F)c2)cc1 [Compound 58]
medium value

Place this compound in its band: Cc1cccc(C(=O)Nc2nonc2-c2ccc(F)cc2)c1 [Compound 49]
medium value

Place this compound in its band: O=C(Nc1nonc1-c1ccc([N+](=O)[O-])cc1)c1ccccc1 [Compound 37]
medium value

Place this compound in its band: Cc1cccc(C(=O)Nc2nonc2-c2ccc(Cl)cc2)c1 [Compound 47]
high value

Place this compound in its band: O=C(Nc1nonc1-c1ccc(F)cc1)c1cccc(F)c1 [Compound 45]
medium value

Place this compound in its band: Cc1cccc(C(=O)Nc2nonc2-c2cccc(N)c2)c1 [Compound 61]
high value
